Assay: Oral bioavailability in 129/SvEvBrd x C57BL/6 hybrid mouse at 1 mg/kg, iv and 10 mg/kg, po
Format: ADME, organism-based
Settings: 129/SvEvBrd x C57BL/6 hybrid, in vivo
reported.metric: bioavailability (%)

query.smiles | unit | bioavailability
CCc1[nH]c(C(C)=O)nc1[C@@H](O)[C@H](O)[C@H](O)CO | % | 17.1

a = CC(=O)c1cccc([C@@H](O)[C@H](O)[C@H](O)CO)n1
b = CC(=O)N/N=C(\C)c1nc([C@@H](O)[C@H](O)[C@H](O)CO)c[nH]1
Query: For the pair a and b , which entry has the numerically smaller recorded bioavailability? Selection: enter the item's label.
Response: b

====

Experiment: Cmax in 129/SvEvBrd x C57BL/6 hybrid mouse
Format: ADME, organism-based
Details: in vivo
reported.metric: Cmax (µM)
Dear colleague, please return just the value in µM, with no unit written.

Query: Any idea what its Cmax is? The compound is CC(=O)c1nc([C@@H](O)[C@H](O)[C@H](O)CO)c[nH]1
Response: 24.9

====

Test system: Mus musculus
Assay: Oral bioavailability in 129/SvEvBrd x C57BL/6 hybrid mouse at 1 mg/kg, iv and 10 mg/kg, po
Format: ADME, organism-based
Details: in vivo
reported.metric: F (%)

Below are worked cases with known answers.
compound | F (%)
CC(=O)c1ncc([C@@H](O)[C@H](O)[C@H](O)CO)s1 | 65
CC(O)c1nc([C@@H](O)[C@H](O)[C@H](O)CO)c[nH]1 (some centres undefined) | 22

1 = CN(C)C(=O)c1nc([C@@H](O)[C@H](O)[C@H](O)CO)c[nH]1
2 = OC[C@@H](O)[C@@H](O)[C@H](O)c1c[nH]c(C(F)(F)C(F)(F)F)n1
Query: Given the two records 1 and 2 , choose the one whose F value is lower. Your answer should be the label attached to the chosen record.
Response: 1
(1: 5%, 2: 31%)

====

Assay: Permeability across human Caco-2 cell membrane at 20 uM
Format: ADME, cell-based
Details: read-out: permeability
reported.metric: Papp at 20 µM (×10⁻⁶ cm/s)

query.smiles | reported.measurement
CC(=O)c1ncc([C@@H](O)[C@H](O)[C@H](O)CO)s1 | 13.9

1 = CC(=O)N/N=C(\C)c1nc([C@@H](O)[C@H](O)[C@H](O)CO)c[nH]1
2 = CC(=O)c1nc([C@@H](O)[C@H](O)[C@H](O)CO)cn1C
3 = CC(=O)c1nc([C@@H](O)[C@H](O)[C@H](O)CO)c(-c2ccccc2)[nH]1
Query: Please give the order of these molecules when sorted by Papp at 20 µM, largest value leading. Present the labels in the sequence the task asks for.
Response: 1, 2, 3
(1: 9 ×10⁻⁶ cm/s, 2: 5.57 ×10⁻⁶ cm/s, 3: 3.11 ×10⁻⁶ cm/s)

====

Test: Half life in 129/SvEvBrd x C57BL/6 hybrid mouse
Assay type: ADME, organism-based
Conditions: in vivo
reported.metric: half-life (h)

compound | half-life (h)
CC(F)(F)c1nc([C@@H](O)[C@H](O)[C@H](O)CO)c[nH]1 | 1

P = OC[C@@H](O)[C@@H](O)[C@H](O)c1c[nH]c(-c2ncccn2)n1
Q = CC(=O)c1nc([C@@H](O)[C@@H](O)[C@H](O)CO)c[nH]1
R = CC(=O)c1ncc([C@@H](O)[C@H](O)[C@H](O)CO)s1
Query: Hello, I need these entries ordered by half-life, highest reading first. Thanks! Sort and list the labels as requested.
Response: Q, P, R
